# tested_system: recombinant human A1 receptors (hA1) (Homo sapiens, UniProt P30542)
# Sequence (P30542 whole entry): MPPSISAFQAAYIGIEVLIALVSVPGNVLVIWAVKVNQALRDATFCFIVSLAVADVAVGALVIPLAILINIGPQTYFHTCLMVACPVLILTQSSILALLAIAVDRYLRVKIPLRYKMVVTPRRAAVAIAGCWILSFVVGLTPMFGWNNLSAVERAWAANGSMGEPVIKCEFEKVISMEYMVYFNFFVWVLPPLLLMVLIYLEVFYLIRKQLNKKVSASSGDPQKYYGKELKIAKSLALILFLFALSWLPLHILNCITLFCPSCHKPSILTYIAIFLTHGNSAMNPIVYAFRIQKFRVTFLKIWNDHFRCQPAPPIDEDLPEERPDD
# assay_protocol: Radioligand binding ([3H]CPX) at recombinant human A1 receptors in HEK-293 cells
# measurement_conditions: read-out: hA1 Ki, values marked (h)^a; Table 4; vs [3H]CPX, HEK-293
For each record, write down the corresponding Ki.
Answers are plain numbers, in nM.

{"compound": "CCCn1c(=O)c2[nH]c(-c3ccc(OCC(=O)NN4C(=O)c5ccccc5C4=O)cc3)nc2n(CCC)c1=O [Compound 57]", "metric_name": "Ki", "unit_symbol": "nM", "readout_value": 210}
{"compound": "CCCn1c(=O)c2[nH]c(-c3ccc(OCC(=O)NN4C(=O)CCC4=O)cc3)nc2n(CCC)c1=O [Compound 43]", "metric_name": "Ki", "unit_symbol": "nM", "readout_value": 75.2}
{"compound": "CCCn1c(=O)c2[nH]c(-c3ccc(OCC(=O)NNC(=O)CCC(=O)O)cc3)nc2n(CCC)c1=O [Compound 42]", "metric_name": "Ki", "unit_symbol": "nM", "readout_value": 219}

Inquiry: Find the recorded Ki belonging to CCCn1c(=O)c2[nH]c(-c3ccc(OCC(=O)NNC(C)=O)cc3)nc2n(CCC)c1=O [Compound 41] and report it.
Reply text: 125

----------
# tested_system: recombinant human A2A receptors (hA2A) (Homo sapiens, UniProt P29274)
# Sequence (P29274 whole entry): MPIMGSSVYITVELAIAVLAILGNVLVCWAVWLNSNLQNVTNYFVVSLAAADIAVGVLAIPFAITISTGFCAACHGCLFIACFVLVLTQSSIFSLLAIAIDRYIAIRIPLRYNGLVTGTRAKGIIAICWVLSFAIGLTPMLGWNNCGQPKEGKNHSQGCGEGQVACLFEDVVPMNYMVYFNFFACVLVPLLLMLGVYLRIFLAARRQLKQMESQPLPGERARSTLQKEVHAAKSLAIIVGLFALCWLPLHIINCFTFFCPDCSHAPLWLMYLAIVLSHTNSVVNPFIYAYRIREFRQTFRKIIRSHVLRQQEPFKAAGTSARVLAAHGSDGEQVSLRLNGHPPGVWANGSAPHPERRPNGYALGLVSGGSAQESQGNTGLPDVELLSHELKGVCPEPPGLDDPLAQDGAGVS
# assay_protocol: Radioligand binding (125I-ZM241385) at recombinant human A2A receptors in HEK-293 cells
# measurement_conditions: read-out: hA2A Ki, values marked (h); Table 3
metric_name: Ki
Answer as a quantity: numeral, then unit.

Inquiry: Find the recorded Ki belonging to CCCn1c(=O)c2[nH]c(-c3ccc(/C=C/C(=O)NN4C(=O)C(C)=C(C)C4=O)cc3)nc2n(CCC)c1=O and report it.
Reply text: 223 nM

----------
# tested_system: rat A2A receptors (rA2A) (Rattus norvegicus)
# Construct: to A2A receptors from rat striatal membranes was performed as described; from tissue; host or cells: rat striatal membranes
# assay_protocol: Displacement of [3H]CGS 21680 binding in rat striatal membranes
# measurement_conditions: read-out: rA2A Ki or IC50
metric_name: Ki

Inquiry: // lookup Ki | system=rat A2A receptors (rA2A) (Rattus norvegicus) | key= CCCn1c(=O)c2[nH]c(-c3ccc(OCC(=O)NCc4ccccc4)cc3)nc2n(CCC)c1=O
Reply text: 0.0259 µM

----------
# tested_system: human A3 receptors (hA3) (Homo sapiens, UniProt P0DMS8)
# Construct: expressed in transfected cells; host or cells: HEK-293
# Sequence (P0DMS8 1-318): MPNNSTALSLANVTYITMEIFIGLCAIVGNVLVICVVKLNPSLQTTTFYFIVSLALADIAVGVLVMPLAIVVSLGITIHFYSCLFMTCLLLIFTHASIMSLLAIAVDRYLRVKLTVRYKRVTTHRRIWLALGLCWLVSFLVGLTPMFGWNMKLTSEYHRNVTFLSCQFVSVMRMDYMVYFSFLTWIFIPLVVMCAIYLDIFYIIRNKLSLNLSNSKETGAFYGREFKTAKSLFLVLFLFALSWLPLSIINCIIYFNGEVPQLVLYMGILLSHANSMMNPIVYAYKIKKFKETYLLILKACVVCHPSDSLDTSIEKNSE
# assay_protocol: Displacement of [125I]ABA binding at human A3 receptors expressed in HEK-293 cells
# measurement_conditions: Table 2; read-out: hA3 Ki or IC50
For each record, write down the corresponding pKi.
Give bare numbers, as −log10 of the molar value.

Please review the following examples before continuing.
{"compound": "CCCn1c(=O)c2[nH]c(-c3ccc(OCC(=O)Nc4ccc(C(F)(F)F)cc4)cc3)nc2n(CCC)c1=O [Compound 29]", "tested_system": "human A3 receptors (hA3) (Homo sapiens, UniProt P0DMS8)", "pKi": 6.67}
{"compound": "CCCn1c(=O)c2[nH]c(-c3ccc(OCC(=O)Nc4ccccc4C(C)=O)cc3)nc2n(CCC)c1=O [Compound 18]", "tested_system": "human A3 receptors (hA3) (Homo sapiens, UniProt P0DMS8)", "pKi": 7.21}
{"compound": "CCCn1c(=O)c2[nH]c(-c3ccc(OCC(=O)Nc4cccc(C(C)=O)c4)cc3)nc2n(CCC)c1=O [Compound 19]", "tested_system": "human A3 receptors (hA3) (Homo sapiens, UniProt P0DMS8)", "pKi": 6.45}
{"compound": "CCCn1c(=O)c2[nH]c(-c3ccc(OCC(=O)N(Cc4ccccc4)Cc4ccccc4)cc3)nc2n(CCC)c1=O [Compound 15]", "tested_system": "human A3 receptors (hA3) (Homo sapiens, UniProt P0DMS8)", "pKi": 6.55}
{"compound": "CCCn1c(=O)c2[nH]c(-c3ccc(OCC(=O)Nc4ccc(Br)cc4)cc3)nc2n(CCC)c1=O [Compound 32]", "tested_system": "human A3 receptors (hA3) (Homo sapiens, UniProt P0DMS8)", "pKi": 5.64}
{"compound": "CCCn1c(=O)c2[nH]c(-c3ccc(OCC(=O)Nc4ccc(I)cc4)cc3)nc2n(CCC)c1=O [Compound 33]", "tested_system": "human A3 receptors (hA3) (Homo sapiens, UniProt P0DMS8)", "pKi": 5.90}

Field: next compound
Inquiry: Find the recorded pKi belonging to CCCn1c(=O)c2[nH]c(-c3ccc(OCC(=O)NCc4ccccc4)cc3)nc2n(CCC)c1=O [Compound 13] and report it.
Reply text: 7.10

----------
# tested_system: human A2B receptors (hA2B) (Homo sapiens)
# Construct: expressed in transfected cells; host or cells: HEK-293 (HEK-A2B, G418-selected)
# Sequence (P29275 1-332): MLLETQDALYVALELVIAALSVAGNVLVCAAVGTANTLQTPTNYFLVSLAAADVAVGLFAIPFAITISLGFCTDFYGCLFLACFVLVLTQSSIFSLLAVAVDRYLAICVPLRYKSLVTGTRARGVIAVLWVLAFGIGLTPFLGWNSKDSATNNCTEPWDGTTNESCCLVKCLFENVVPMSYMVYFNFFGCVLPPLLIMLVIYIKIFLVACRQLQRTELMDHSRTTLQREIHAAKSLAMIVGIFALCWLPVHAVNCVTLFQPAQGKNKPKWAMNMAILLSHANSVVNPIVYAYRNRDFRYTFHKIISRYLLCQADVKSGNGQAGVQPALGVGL
# assay_protocol: Radioligand binding ([125I]ABOPX / [3H]ZM241385) at human A2B receptors expressed in HEK-293 cells
# measurement_conditions: Table 4; Ki ratio
For each record, write down the corresponding rA1/hA2B.

Give rA1/hA2B for each of the items listed below.
1. CCCn1c(=O)c2[nH]c(-c3ccc(OCC(=O)NNC(=O)[C@H](CCC(=O)O)NC(=O)C(F)(F)F)cc3)nc2n(CCC)c1=O
2. CCCn1c(=O)c2[nH]c(-c3ccc(OCC(=O)NN4C(=O)CCCC4=O)cc3)nc2n(CCC)c1=O
3. CCCn1c(=O)c2[nH]c(-c3ccc(OCC(=O)NNC(C)=O)cc3)nc2n(CCC)c1=O
4. CCCn1c(=O)c2[nH]c(-c3ccc(OCC(=O)NN4C(=O)CCC4=O)cc3)nc2n(CCC)c1=O
5. CCCn1c(=O)c2[nH]c(-c3ccc(OCC(=O)NN4C(=O)C=C(C)C4=O)cc3)nc2n(CCC)c1=O
6. CCCn1c(=O)c2[nH]c(-c3ccc(OCC(=O)NN4C(=O)C5=C(CCCC5)C4=O)cc3)nc2n(CCC)c1=O
7. CCCn1c(=O)c2[nH]c(-c3ccc(OCC(=O)NN4C(=O)CC[C@H](NC(=O)C(F)(F)F)C4=O)cc3)nc2n(CCC)c1=O

Reply text:
1. 2.9
2. 0.6
3. 0.10
4. 3.0
5. 1.4
6. 1.7
7. 4.1

----------
# tested_system: rat A2A receptors (rA2A) (Rattus norvegicus, UniProt P30543)
# Construct: to A2A receptors from rat striatal membranes was performed as described; from tissue; host or cells: rat striatal membranes
# Sequence (P30543 whole entry): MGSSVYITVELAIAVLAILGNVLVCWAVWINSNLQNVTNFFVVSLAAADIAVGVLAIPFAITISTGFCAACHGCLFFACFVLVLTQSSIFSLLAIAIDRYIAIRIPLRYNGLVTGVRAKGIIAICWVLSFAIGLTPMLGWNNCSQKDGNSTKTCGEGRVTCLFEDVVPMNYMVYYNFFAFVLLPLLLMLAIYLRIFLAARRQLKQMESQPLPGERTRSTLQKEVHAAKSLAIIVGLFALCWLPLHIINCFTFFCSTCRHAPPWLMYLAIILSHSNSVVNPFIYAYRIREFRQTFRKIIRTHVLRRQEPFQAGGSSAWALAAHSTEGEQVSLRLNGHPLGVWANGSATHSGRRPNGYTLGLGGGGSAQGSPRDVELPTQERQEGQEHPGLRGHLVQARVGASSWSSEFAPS
# assay_protocol: Displacement of [3H]CGS 21680 binding in rat striatal membranes
# measurement_conditions: Table 1; [3H]CGS 21680, rat striatal membranes; read-out: rA2A Ki or IC50
# Protocol: Bruns, R. F. et al., Naunyn-Schmiedeberg's Arch. […] Binding of [^3H]R-N^6-phenylisopropyladenosine. Schwabe, U. et al., Naunyn-Schmiedeberg's Arch. […] (Dupont NEN, Boston, Mass.) to A2A receptors from rat striatal membranes was performed as described. […] All non-radioactive compounds were initially dissolved in DMSO, and diluted with buffer to the final concentration, where the amount of DMSO never exceeded 2%. […]
metric_name: pKi
Answers are plain numbers, as −log10 of the molar value.

Please review the following examples before continuing.
{"smi": "C=CCn1c(=O)c2[nH]c(-c3ccc(OCC(=O)O)cc3)nc2n(CC=C)c1=O", "readout_value": 5.37}
{"smi": "CCCn1c(=O)c2[nH]c(-c3ccc(OCC(=O)ON4C(=O)CCC4=O)cc3)nc2n(CCC)c1=O", "readout_value": 6.90}
{"smi": "CCCn1c(=O)c2[nH]c(-c3ccc(C=CC(=O)O)cc3)nc2n(CCC)c1=O", "readout_value": 6.10}
{"smi": "CCCCn1c(=O)c2[nH]c(-c3ccc(OCC(=O)O)cc3)nc2n(CCCC)c1=O", "readout_value": 6.06}

Field: next compound
Inquiry: // lookup pKi | system=rat A2A receptors (rA2A) (Rattus norvegicus, UniProt P30543) | key= O=C(O)/C=C/c1ccc(-c2nc3c([nH]2)c(=O)n(Cc2ccccc2)c(=O)n3Cc2ccccc2)cc1
Reply text: 5.35
